- assay.method.text: High Throughput Screening for Foot and Mouth Disease Virus Antivirals; further: nearly all actives have a fitted effect of over 45% in size
- condition.parameters: FMDV antiviral cell-based qHTS; series mostly up to 57.9 µM
Screen size: about 410,000 compounds; about 5,100 (1.2%) were called active. Another 8% or so got no clear call; they are omitted. The call rests on the fitted dose curve; tested in HEK293T cells. For the sample, actives were picked, then their nearest neighbours and some compounds at random.
Output constraint: value belongs to active, inactive

Would you please look over these solved cases?
[
  {
    "compound": "COc1cccc(Cn2c(=O)c(CCc3ccccc3)nc3cnc(N(C)C)nc32)c1",
    "class.name": "inactive"
  },
  {
    "compound": "N#Cc1cccc(-c2nc3cnc(N4CCNCC4)nc3n(C3CC3)c2=O)c1",
    "class.name": "inactive"
  },
  {
    "compound": "COc1cc(=O)n2c(c1C(=O)NC(C)c1ccco1)CCN(Cc1cc(C)cc(C)c1)CC2 (stereo not given)",
    "class.name": "inactive"
  },
  {
    "compound": "CCOc1ccc(NC(=O)CC2C(=O)N(c3cccc(OC)c3)C(=O)N2C2CCCCC2)cc1 (stereo not given)",
    "class.name": "inactive"
  },
  {
    "compound": "Cc1cc(C(=O)NCC2Cc3cccc(-c4cncnc4)c3O2)c(C)o1 (stereo not given)",
    "class.name": "inactive"
  }
]

In this assay, the call recorded for COc1ccc(-c2nc3cnc(N(C)C)nc3n(Cc3cccs3)c2=O)cc1 was what?
inactive

What classification did CCOC(=O)[C@]12Cc3ccccc3[C@H]1N(C1CCCCC1)C(=O)c1cc(OC)ccc12 end up with in this test?
active

How did this test come out for CN1C(=O)c2ccc(NC(=O)c3c(F)c(F)c(F)c(F)c3F)cc2C1=O ?
inactive

For CCOC(=O)c1ccc(NC(=O)CC2C(=O)N(c3cccc(OC)c3)C(=O)N2C2CCCCC2)cc1 (stereo not given) , which call appears in the assay record?
inactive

Called result for O=C(c1cnccn1)N1CCC2(CCCN(Cc3ccccc3)C2)CC1
inactive

* * *

- assay.method.text: High Throughput Screening for Foot and Mouth Disease Virus Antivirals; further: nearly all actives have a fitted effect of over 45% in size
- condition.parameters: FMDV antiviral cell-based qHTS; series mostly up to 57.9 µM
About 5,100 (1.2%) of roughly 410,000 compounds were called active. Inconclusive results (about 8%) are left out. Calls follow the shape of the full dose curve; tested in HEK293T cells. The full list was thinned out, with actives kept by preference.
Reply using exactly one outcome from YES (active), NO (inactive)

[
  {
    "compound": "COc1ccc(Oc2ncc3nc(C)c(=O)n(-c4ccccc4)c3n2)cc1",
    "class.name": "NO"
  },
  {
    "compound": "Cc1nc2cnc(Oc3cccc(Cl)c3)nc2n(C2CC2)c1=O",
    "class.name": "NO"
  },
  {
    "compound": "CC(C)OC(=O)c1ccc(NCc2cc(O)ccc2O)cc1Cl",
    "class.name": "YES"
  },
  {
    "compound": "COc1ccc(N)cc1NC(=O)CN1CCOCC1",
    "class.name": "NO"
  },
  {
    "compound": "O=C(C(=O)N1CCOc2ccc(CN3CCN(Cc4ccccn4)CC3)cc2C1)c1ccccc1",
    "class.name": "NO"
  }
]

Look up the recorded call for CC(=O)Nc1cccc(NC(=O)CSc2cn(CC(=O)N3CCCC3)c3ccccc23)c1 in this test.
NO

Tell me the assay call for Clc1ccc([C@@H]2C[C@H]3CC[C@@H]2N3)cn1 please.
NO

* * *

- assay.method.text: High Throughput Screening for Foot and Mouth Disease Virus Antivirals; further: nearly all actives have a fitted effect of over 45% in size
- condition.parameters: FMDV antiviral cell-based qHTS; series mostly up to 57.9 µM
Hit rate of the full screen: of about 410,000 compounds, about 5,100 (1.2%) were called active. Not shown: some 8% with an inconclusive outcome. Calls come from the whole dose curve; tested in HEK293T cells. The entries come from a sample that favours actives as a whole.
Choose one outcome from this list and give only that: TRUE (active), FALSE (inactive)

Answer briefly: the call reported for COc1ccccc1C(=O)Nc1c(C(=O)N(C)Cc2ccccc2)sc2nc(C)c(Cl)c(C)c12 in this assay.
FALSE

Each compound tested received a call. Report the one for CC(=O)c1ccc(NC(=O)CSc2nnc(NC(=O)Nc3ccccc3)s2)cc1 .
FALSE

What did this assay record as the result for CC(=O)Nc1ccc(C(=O)Nc2nc(-c3cc(C)n(Cc4ccccc4)c3C)cs2)cc1 ?
TRUE

* * *

- assay.method.text: High Throughput Screening for Foot and Mouth Disease Virus Antivirals; further: nearly all actives have a fitted effect of over 45% in size; further: potency means the concentration at half of the fitted maximal effect
- condition.parameters: FMDV antiviral cell-based qHTS; series mostly up to 57.9 µM
About 5,100 (1.2%) of roughly 410,000 compounds were called active. Inconclusive results (about 8%) are left out. Shown is part of a subset that was picked to be rich in actives.
property.name: Potency

Illustrative cases are given below, each with its answer.
[
  {
    "compound": "CN(Cc1cn(Cc2ccc(C(F)(F)F)cc2)nn1)C1CN(Cc2cn(Cc3ccc(C(F)(F)F)cc3)nn2)S(=O)(=O)C1 (stereo not given)",
    "Potency": "17.8 µM (active)"
  },
  {
    "compound": "CN(C)C1CN(Cc2cn(Cc3ccccc3)nn2)S(=O)(=O)C1 (stereo not given)",
    "Potency": "inactive"
  },
  {
    "compound": "CCCn1ccc2c(OCC(=O)NCc3ccc(F)cc3)cccc2c1=O",
    "Potency": "inactive"
  },
  {
    "compound": "Cc1ccc(Cn2cc(CN3CC(N4CCN(C)CC4)CS3(=O)=O)nn2)cc1 (stereo not given)",
    "Potency": "inactive"
  },
  {
    "compound": "COc1ccc(-c2nc3cnc(OC)nc3n(Cc3ccc(F)cc3)c2=O)cc1",
    "Potency": "inactive"
  }
]

Turning now to a further record.
// fetch Potency given entry COCCNc1ncnc2ccc(-c3cccnc3)cc12
inactive

* * *

- assay.method.text: High Throughput Screening for Foot and Mouth Disease Virus Antivirals; further: nearly all actives have a fitted effect of over 45% in size
- condition.parameters: FMDV antiviral cell-based qHTS; series mostly up to 57.9 µM
About 5,100 (1.2%) of roughly 410,000 compounds were called active. Inconclusive results (about 8%) are left out. Calls come from the whole dose curve; tested in HEK293T cells. The entries come from a sample that favours actives as a whole.
Respond only with the outcome that fits, drawn from active, inactive

[
  {
    "molecule": "CC(=O)OC1C2(CC3N4C(=O)C5(CO)SSC4(CC31O)C(=O)N5C)OC(C)C(C)(C)C2=O (stereo not given)",
    "class.name": "active"
  },
  {
    "molecule": "CC(C)(c1ccc(OC[C@@H]2CO2)cc1)c1ccc(OC[C@H]2CO2)cc1",
    "class.name": "inactive"
  },
  {
    "molecule": "CCc1cccc(C)c1Nc1c(-c2ccc(N(C)C)cc2)nc2ncccn12",
    "class.name": "inactive"
  },
  {
    "molecule": "CC(C)CC(NS(=O)(=O)c1ccc2c(c1)oc(=O)n2C)C(=O)NCc1ccccc1Cl (stereo not given)",
    "class.name": "inactive"
  }
]

Consider the additional molecule presented here.
Could you check what this test reported for CCS(=O)(=O)N(C)[C@@H]1c2cc(C#N)ccc2OC(C)(C)[C@H]1O ?
inactive

* * *

- assay.method.text: High Throughput Screening for Foot and Mouth Disease Virus Antivirals; further: nearly all actives have a fitted effect of over 45% in size
- condition.parameters: FMDV antiviral cell-based qHTS; series mostly up to 57.9 µM
Screen size: about 410,000 compounds; about 5,100 (1.2%) were called active. Inconclusive results (about 8%) are left out. Calls follow the shape of the full dose curve; tested in HEK293T cells. Only a selection was taken, and actives are over-represented in it overall.
One label from this list, please: active, inactive

// known answers, use as guide
[
  {
    "compound": "Fc1ccc(OCc2nn3c(Cn4nnc5ccccc54)nnc3s2)cc1",
    "class.name": "inactive"
  },
  {
    "compound": "CCCCn1c(=O)c2oc3ccccc3c2n(CC(=O)Nc2ccccc2OC)c1=O",
    "class.name": "inactive"
  },
  {
    "compound": "Cc1ccsc1C(=O)OCC(=O)c1cc(C)n(CC2CCCO2)c1C (stereo unspecified)",
    "class.name": "active"
  },
  {
    "compound": "CCC(Oc1ccccc1)C(=O)OCC(=O)Nc1c(C)nn(-c2ccccc2)c1C (stereo unspecified)",
    "class.name": "inactive"
  },
  {
    "compound": "CCN1CCc2nc3sc(C(=O)Nc4ccccc4OC(F)(F)F)c(N)c3cc2C1",
    "class.name": "inactive"
  },
  {
    "compound": "CCCOc1cccc(C(=O)Nc2cccc(NC(=O)c3ccc(C(C)(C)C)cc3)c2)c1",
    "class.name": "inactive"
  },
  {
    "compound": "COc1ccc(CCNC(=O)c2ccc3c(c2)nc(C)n3-c2ccc(Br)cc2)cc1OC",
    "class.name": "inactive"
  },
  {
    "compound": "Cc1ccc(C(=O)Nc2cccc(-c3nc(CNC(=O)c4ccccc4-n4cccn4)c(C)o3)c2)s1",
    "class.name": "inactive"
  },
  {
    "compound": "C/C=C/c1ccc(OCC(=O)OCC(=O)Nc2c(C)nn(-c3ccccc3)c2C)c(OC)c1",
    "class.name": "inactive"
  },
  {
    "compound": "Cc1cc(C(=O)COC(=O)c2cccs2)c(C)n1-c1c(C)n(C)n(-c2ccccc2)c1=O",
    "class.name": "inactive"
  }
]

Per the assay record, what outcome was assigned to COc1ccc(-c2cc(-c3ccccc3)nc3c2COc2ccc(Cl)cc2-3)cc1 ?
inactive

Lab log entry: COc1ccc(CNC(=O)COC(=O)c2c(C)nn(-c3ccccc3)c2C)cc1OC — outcome as called in the assay?
active

Dear colleague, could you share the recorded outcome for COCCn1c(=O)c(-c2cc(F)cc(F)c2)nc2cncnc21 when you have a moment?
inactive

I'd appreciate the recorded outcome for COc1ccc(CNC(=O)COc2ccccc2C(=O)c2cnn(-c3ccccc3)c2)cc1OC from this test.
inactive

Give the logged outcome of this assay for the following compound: CCN(CC(=O)NC1CCS(=O)(=O)C1)S(=O)(=O)c1ccccc1 (stereo unspecified)
inactive

Status in this test for O=C(c1ccco1)N1CCC[C@@]2(CCN(c3ccccc3)C2)C1 ?
inactive

Please let me know the test result on file for O=C(O)C(O)[C@@](O)(Cc1ccc(O)cc1)C(=O)O (stereo partly specified) .
inactive

Record request — test call for O=C(CSc1ccccc1F)NC1CCS(=O)(=O)C1 (stereo unspecified)
inactive

Dear colleague, could you share the recorded outcome for O=S1(=O)CCC(NC(=S)SCc2ccccc2Br)C1 (stereo unspecified) when you have a moment?
active

State the result this test recorded for CC(C)C(NS(=O)(=O)c1ccc(-c2ccc(Br)cc2)cc1)C(=O)O (stereo unspecified) .
inactive

Status in this test for c1ccc(Cc2nn3c(Cn4cnc5ccccc54)nnc3s2)cc1 ?
active
